These entries and their values trace back to PubChem BioAssay (Tox21).

Assay: qHTS assay to identify small molecule agonists of the endoplasmic reticulum stress response signaling pathway - cell viability counter screen (AID 1159517);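 further: HeLa cells carrying an ER stress response element beta-lactamase reporter; nearly all actives have a fitted effect of over 50% in size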
Conditions: ESRE-bla HeLa viability, CellTiter-Glo luminescence, 5 h; series mostly up to 61 µM
Inconclusive results are not listed. Active and inactive are the calls of the source. The call rests on the fitted dose curve.
READOUT: activity change, negative = cytotoxicity

Example cases with answers are listed next.
[
  {
    "MOLECULE": "CC1CC(O)CC(C)(C)C1 (stereo unspecified)",
    "RESULT": "inactive"
  },
  {
    "MOLECULE": "CC1(C)C2=CCCC(C)(C)[C@]23CC[C@H]1C3",
    "RESULT": "inactive"
  },
  {
    "MOLECULE": "CSc1ccc(Oc2ccc(S(N)(=O)=O)cc2CN(C)C)cc1C",
    "RESULT": "inactive"
  },
  {
    "MOLECULE": "Cc1cc(S(=O)(=O)O)ccc1N=Nc1c(O)ccc2ccccc12",
    "RESULT": "inactive"
  },
  {
    "MOLECULE": "Cc1occc1C(=O)Nc1ccc(C(=O)N2CCC(F)(F)/C(=C\\C(=O)N3CCC(N4CCCCC4)CC3)c3ccccc32)cc1",
    "RESULT": "inactive"
  }
]

Please state, for each entry, its recorded activity change, negative = cytotoxicity.
1. CC1(C)C(=O)N(Br)C(=O)N1Cl
2. CCOC(=O)C(C)Oc1ccc(Oc2nc3ccc(Cl)cc3o2)cc1 (stereo unspecified)
3. c1cc[c]([Bi]([c]2ccccc2)[c]2ccccc2)cc1
4. CN(C)C(=O)Nc1ccc(Oc2ccc(Cl)cc2)cc1

Result:
1. inactive
2. inactive
3. inactive
4. inactive

Please state, for each entry, its recorded activity change, negative = cytotoxicity.
1. CCC(=O)Oc1ccc(/C(CC)=C(\CC)c2ccc(OC(=O)CC)cc2)cc1
2. O=C(O)c1c(O)c(-c2ccccc2)nc2ccccc12

Result:
["inactive", "inactive"]

----------
Assay: qHTS assay to identify small molecule agonists of the AP-1 signaling pathway - cell viability counter screen (AID 1159525); further: nearly all actives have a fitted effect of over 55% in size
Details: ME-180 (cervical carcinoma) AP-1-bla cells viability, ATP luminescence, 5 h; series mostly up to 76.8 µM
Results filed as inconclusive are left out. The source made the active and inactive calls. Calls come from the whole dose curve.
READOUT: viability change, negative = cytotoxic

Example cases with answers are listed next.
[
  {
    "MOLECULE": "CC(C)(CCl)c1ccccc1",
    "READOUT": "viability change, negative = cytotoxic",
    "RESULT": "inactive"
  },
  {
    "MOLECULE": "C=CCOC(=O)/C=C\\C(=O)OCC=C",
    "READOUT": "viability change, negative = cytotoxic",
    "RESULT": "inactive"
  },
  {
    "MOLECULE": "C[N+]1(C)CCC(=C(c2ccccc2)c2ccccc2)CC1",
    "READOUT": "viability change, negative = cytotoxic",
    "RESULT": "inactive"
  },
  {
    "MOLECULE": "CC(=O)[C@H]1CC[C@H]2[C@@H]3C[C@H](C)C4=CC(=O)CC[C@]4(C)[C@H]3[C@@H](O)C[C@]12C",
    "READOUT": "viability change, negative = cytotoxic",
    "RESULT": "inactive"
  },
  {
    "MOLECULE": "C[C@@H]1C[C@H]2[C@@H]3CCC4=CC(=O)C=C[C@]4(C)[C@@]3(F)[C@@H](O)C[C@]2(C)[C@@]1(O)C(=O)CO",
    "READOUT": "viability change, negative = cytotoxic",
    "RESULT": "inactive"
  },
  {
    "MOLECULE": "CCOC(=O)[C@@H](C)Oc1ccc(Oc2nc3ccc(Cl)cc3o2)cc1",
    "READOUT": "viability change, negative = cytotoxic",
    "RESULT": "inactive"
  },
  {
    "MOLECULE": "CN1CCCN=C1/C=C/c1cccs1",
    "READOUT": "viability change, negative = cytotoxic",
    "RESULT": "inactive"
  },
  {
    "MOLECULE": "COc1cc2c(N3CCN(C(=O)Nc4ccc(OC(C)C)cc4)CC3)ncnc2cc1OCCCN1CCCCC1",
    "READOUT": "viability change, negative = cytotoxic",
    "RESULT": "inactive"
  }
]

Please state, for each entry, its recorded viability change, negative = cytotoxic.
1. CCOC(=O)c1ccccc1OC
2. CCCCN(CCCC)CCCOC(=O)c1ccc(N)cc1
3. C[N+](C)(C)CCOC(N)=O
4. CCOC(=O)C(C)Oc1ccc(Oc2nc3ccc(Cl)cc3o2)cc1 (configuration not stated)

Result:
1. inactive
2. inactive
3. inactive
4. inactive

----------
Molecular target: Peroxisome proliferator-activated receptor gamma (Homo sapiens)
Test: qHTS assay to identify small molecule antagonists of the peroxisome proliferator-activated receptor gamma (PPARg) signaling pathway (AID 743191); further: nearly all actives have a fitted effect of over 30% in size
Conditions: HEK293H PPARg-UAS-bla, beta-lactamase ratio, antagonist, 17 h; series mostly up to 62.6 µM
Excerpt: U.S. Tox21 Program National Center for Advancing Translational Sciences [NCATS] NIH Chemical Genomics Center [NCGC] U.S. Environmental Protection Agency [EPA] National Institutes of Environmental Health Sciences [NIEHS] National Toxicology Program [NTP] U.S. Food and Drug Administration [FDA] […]
Inconclusive results are not listed. Activity calls are given as the source filed them. Calls come from the whole dose curve.
Your answer must be one of the following: active, inactive

[
  {
    "STRUCTURE": "CN1CCCN=C1/C=C/c1cccs1",
    "QUALITATIVE_LABEL": "inactive"
  },
  {
    "STRUCTURE": "O=C(O)c1cccc(O)c1",
    "QUALITATIVE_LABEL": "inactive"
  }
]

Request: Please indicate how the test categorized Cc1ccc(Nc2nccc(N(C)c3ccc4c(C)n(C)nc4c3)n2)cc1S(N)(=O)=O .
Result: active

Request: Please indicate how the test categorized C=CC(=C)CCCC(C)(C)OC(C)=O .
Result: inactive

----------
Target: Nuclear receptor subfamily 1 group I member 2 (Homo sapiens)
Assay: CYP3A4 induction through human pregnane X receptor (PXR) by small molecules, qHTS assay (AID 1346984); further: nearly all actives have a fitted effect of over 40% in size
Conditions: DPX-2 HepG2 PXR, CYP3A4-luciferin luminescence, 24 h; series mostly up to 46.1 µM
Results filed as inconclusive are left out. Activity calls are given as the source filed them. The call rests on the fitted dose curve; in most records, active means well fitted activation curve with a large enough effect in the repeat runs; inconclusive means weak or mixed curves; inactive means no such curve, though single readings can be large or run the other way.
Your answer must be one of the following: active, inactive

// known answers, use as guide
[
  {
    "COMPOUND": "O=C(O)C(Cc1cc(I)c(O)c(I)c1)c1ccccc1 (stereo not drawn)",
    "QUALITATIVE_LABEL": "inactive"
  },
  {
    "COMPOUND": "CC(=O)CC(c1ccc([N+](=O)[O-])cc1)c1c(O)c2ccccc2oc1=O (stereo not drawn)",
    "QUALITATIVE_LABEL": "inactive"
  },
  {
    "COMPOUND": "CO/N=C1\\CN(c2nc3c(cc2F)c(=O)c(C(=O)O)cn3C2CC2)CC1CN (stereo not drawn)",
    "QUALITATIVE_LABEL": "inactive"
  },
  {
    "COMPOUND": "O=C(N/N=C/c1ccc([N+](=O)[O-])o1)c1ccc(O)cc1",
    "QUALITATIVE_LABEL": "inactive"
  },
  {
    "COMPOUND": "O=C(NCCCN1CCOCC1)c1ccc(Cl)cc1",
    "QUALITATIVE_LABEL": "inactive"
  }
]

Request: Please indicate how the test categorized C[N+](C)(C)CCOC(N)=O .
Result: inactive

Request: Please indicate how the test categorized CCCOC(=O)c1ccc(N)cc1 .
Result: inactive

Request: Please indicate how the test categorized CC(=O)[C@H]1CC[C@H]2[C@@H]3C=CC4=CC(=O)CC[C@@]4(C)[C@@H]3CC[C@]12C .
Result: inactive

Request: Please indicate how the test categorized COCCOC(=O)C1=C(C)NC(C)=C(C(=O)OC/C=C/c2ccccc2)C1c1cccc([N+](=O)[O-])c1 (stereo not drawn) .
Result: active

----------
Assay: qHTS RealTime-Glo MT Cell Viability Assay in HEK293 cells - 24 hour (AID 1224886); further: nearly all actives have a fitted effect of over 50% in size; further: potency means the concentration at half of the fitted maximal effect
Details: RealTime-Glo luminescence; series mostly up to 76.8 µM
Results filed as inconclusive are left out. Calls of active or inactive are those of the source. The call rests on the fitted dose curve; in most records, active means well fitted cell-killing curve with a large enough effect in the repeat runs; inconclusive means weak or mixed curves, or effect the other way; inactive means flat fitted curve, though single readings scatter.
READOUT: Potency

Example cases with answers are listed next.
[
  {
    "STRUCTURE": "C[C@@H]1C[C@H]2[C@@H]3CCC4=CC(=O)C=C[C@]4(C)[C@@]3(F)[C@@H](O)C[C@]2(C)[C@@]1(O)C(=O)CO",
    "READOUT": "Potency",
    "RESULT": "inactive"
  },
  {
    "STRUCTURE": "Oc1cc(O)c(Cl)cc1Cl",
    "READOUT": "Potency",
    "RESULT": "inactive"
  },
  {
    "STRUCTURE": "COCCOC",
    "READOUT": "Potency",
    "RESULT": "740 nM (active)"
  },
  {
    "STRUCTURE": "NC(=O)Nc1ccc(Cl)cc1",
    "READOUT": "Potency",
    "RESULT": "inactive"
  },
  {
    "STRUCTURE": "O=C(CCCCCCC(=O)Nc1ccccc1)NO",
    "READOUT": "Potency",
    "RESULT": "2390 nM (active)"
  }
]

Request: Using the record for CCN(Cc1cccc(S(=O)(=O)O)c1)c1ccc(C(=C2C=CC(=[N+](CC)Cc3cccc(S(=O)(=O)[O-])c3)C=C2)c2ccccc2)cc1 , report its Potency.
Result: inactive
